Source listed as ChEMBL document CHEMBL1201862.

- System: KM12
- Test name: NCI tumour cell line growth inhibition, 48 h
Active and inactive are the calls of the source. Rule as the data show it: active = GI50 up to about 1.1 µM and inactive = higher.
As shown below, each of these compounds has a reported GI50 value.
Measure name: GI50

> print(dat)
                                    compound  measure.name                result
 1                 CN(C)CCCSc1nc2ccccc2[nH]1          GI50   > 100 µM (inactive)
 2  COc1ccc(/C=C2\N=C3Sc4c([nH]cnc4=O)N3C2=O)cc1          GI50   > 100 µM (inactive)
 3     CNS(=O)(=O)NN(C)S(=O)(=O)c1ccc(OC)cc1          GI50   > 100 µM (inactive)
 4  Cc1cccc(C)c1NC(=O)C(=O)Nn1c(NN)nc2ccccc2c1=O          GI50   > 100 µM (inactive)
 5              COc1ccccc1Nc1nc(N)nc(N)c1N=O          GI50   > 100 µM (inactive)
 6  C(=N\NC1=NCCCN1)/c1ccc(-c2cn3cc(/C=N/NC4=NCCCN4)ccc3n2)cc1          GI50  > 58.1 µM (inactive)
 7  CC(=O)CC1CCC(=O)/C=C/C(=O)OC(CC(C)=O)CCC(=O)/C=C/C(=O)O1 (configuration not stated)          GI50    20.8 µM (inactive)
 8       c1ccc2c(c1)c1c(n2CCOCCN2CCCC2)CCCC1          GI50    > 10 µM (inactive)
 9              CC(=O)N1CCn2c1nc1cc(Cl)ccc12          GI50   > 100 µM (inactive)
10  COc1ccc2c(ccc3c(COC(=O)NC(C)C)c(COC(=O)NC(C)C)n(C)c32)c1          GI50    11.5 µM (inactive)
11  CN(C(=O)c1ccc(OCCCC(=O)O)c(Cl)c1Cl)C1CCCC1          GI50   > 100 µM (inactive)
12  CC(O[Si](C)(C)C)C1C=CC(C)n2c(=O)n(-c3ccccc3)c(=O)n21 (configuration not stated)          GI50   > 100 µM (inactive)
13  CSc1ccc(/C=C2\N=C(c3ccccc3)N(c3nc4cc(Cl)c(F)cc4s3)C2=O)cc1          GI50    31.4 µM (inactive)
14  Cc1cccc(C(C)(C)C)c1NC(=O)C(=O)Cc1nc2ccccc2s1          GI50   > 100 µM (inactive)
15  COc1ccc(C2=C(Cl)C(=O)O/C2=C\c2ccc(OC)c(Br)c2)cc1Cl          GI50   > 100 µM (inactive)
16  COc1cc(Nc2nc3cc(C)ccc3nc2-c2ccccc2)cc(OC)c1OC          GI50    34.4 µM (inactive)
17  OC(c1cccnc1)C(F)(F)c1nc2ccccc2o1 (configuration not stated)          GI50   > 100 µM (inactive)

###

- Test system: ACHN
- Test name: NCI tumour cell line growth inhibition, 48 h
Calls of active or inactive are those of the source. No stated cut-off is given here; in the data, active = GI50 up to about 1.1 µM and inactive = higher.
Measure name: GI50

> print(dat)
                                    molecule               result
 1  CN(C)CCCNC(=O)c1cc2/c(=C\c3ccc(N(C)C)cc3)c3ccccc3n2[n+]1C  > 100 µM (inactive)
 2  O=Cc1cn(CCCCCCCCn2cc(C=O)c3ccccc32)c2ccccc12   > 10 µM (inactive)
 3      O=C1c2nc3n(c2C(=O)c2c1nc1n2CCC1)CCC3   10.9 µM (inactive)
 4  S=P(c1ccccc1)(c1ccccc1)C1(C2(P(=S)(c3ccccc3)c3ccccc3)CC2)CC1  > 100 µM (inactive)
 5     CCCCCCSc1nc(COC(=O)NC)c(COC(=O)NC)n1C  > 100 µM (inactive)
 6  COC(=O)C1CC2(C)C=CC1N(C(=O)OCc1ccccc1)C2 (stereo unspecified)  > 100 µM (inactive)
 7            CCOC(=O)c1c(-c2ccccc2)c(C)cn1C   > 10 µM (inactive)
 8               COc1ccc(/C=C2\CCCCCC2=O)cc1  > 100 µM (inactive)
 9  CC(=O)O[C@H]1C[C@]2(O)[C@@H]3CC[C@@H]4C[C@@H](O)CC[C@]4(C)[C@H]3CC[C@]2(C)[C@H]1C1=CC(=O)OC1    0.031 µM (active)
10                   N#Cc1cccc2c1Nc1ccccc1S2  > 100 µM (inactive)
11              C1=Nc2sc3c(c2C2=NCCN12)CCCC3   17.1 µM (inactive)
